Measured values drawn from BindingDB's records for doi:10.1021/jm100478y for this set.

target: Histone-lysine N-methyltransferase EHMT2 (Homo sapiens)
Sequence (Q96KQ7 whole entry): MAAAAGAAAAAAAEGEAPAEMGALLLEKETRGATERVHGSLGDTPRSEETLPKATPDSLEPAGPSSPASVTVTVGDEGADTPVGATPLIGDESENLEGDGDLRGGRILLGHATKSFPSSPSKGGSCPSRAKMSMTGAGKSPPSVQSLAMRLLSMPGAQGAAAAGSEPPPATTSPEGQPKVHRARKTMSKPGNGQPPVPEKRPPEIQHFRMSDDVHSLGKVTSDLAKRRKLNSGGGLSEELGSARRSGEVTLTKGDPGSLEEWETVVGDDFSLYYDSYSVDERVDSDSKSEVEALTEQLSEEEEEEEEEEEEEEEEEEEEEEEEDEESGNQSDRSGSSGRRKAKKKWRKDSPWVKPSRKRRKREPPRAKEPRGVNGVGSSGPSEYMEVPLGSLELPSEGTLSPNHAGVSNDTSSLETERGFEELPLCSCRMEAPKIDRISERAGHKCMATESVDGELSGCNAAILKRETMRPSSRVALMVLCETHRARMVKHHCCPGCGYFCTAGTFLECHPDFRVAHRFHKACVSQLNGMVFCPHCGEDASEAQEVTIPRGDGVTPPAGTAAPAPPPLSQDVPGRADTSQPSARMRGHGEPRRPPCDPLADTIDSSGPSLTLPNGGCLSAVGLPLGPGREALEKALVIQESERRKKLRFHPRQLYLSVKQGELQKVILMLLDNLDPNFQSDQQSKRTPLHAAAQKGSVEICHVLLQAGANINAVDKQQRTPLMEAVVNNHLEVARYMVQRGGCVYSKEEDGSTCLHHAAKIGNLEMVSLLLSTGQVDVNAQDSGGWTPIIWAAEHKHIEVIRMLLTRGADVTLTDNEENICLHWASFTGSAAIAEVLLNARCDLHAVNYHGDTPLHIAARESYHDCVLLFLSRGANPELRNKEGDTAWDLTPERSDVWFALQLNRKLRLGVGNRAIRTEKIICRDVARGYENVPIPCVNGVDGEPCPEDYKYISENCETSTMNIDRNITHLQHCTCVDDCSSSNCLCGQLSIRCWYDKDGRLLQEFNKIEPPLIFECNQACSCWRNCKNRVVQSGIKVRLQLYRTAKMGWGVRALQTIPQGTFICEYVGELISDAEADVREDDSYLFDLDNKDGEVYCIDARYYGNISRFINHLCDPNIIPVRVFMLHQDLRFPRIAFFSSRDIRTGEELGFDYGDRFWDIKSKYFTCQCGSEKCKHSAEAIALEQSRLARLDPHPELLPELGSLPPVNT
pIC50: −log10 of the molar value.

compound string	pIC50
COc1cc2nc(N3CCCN(C)CC3)nc(NC3CCNCC3)c2cc1OC	< 5.00
